measurement-target: T1, mouse IL-22 (mouse, UniProt Q9JJY9 34-179)
T1 construct: also called mIL-22; mIL22
T1 sequence (looked up): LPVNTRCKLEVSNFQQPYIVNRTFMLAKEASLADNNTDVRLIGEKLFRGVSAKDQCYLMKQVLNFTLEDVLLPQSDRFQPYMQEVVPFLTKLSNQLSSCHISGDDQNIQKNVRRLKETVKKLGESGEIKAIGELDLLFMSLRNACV
experiment-notes: SPR (SierraSensors SPR-2), mIL-22 immobilized on chip, antibody injected, heterogeneous ligand model
value-kind: koff (s⁻¹)

- binder: "CPS-04 (antibody, V domains shown, Mutant of humanized hum10, whole antibody expressed in CHO cells; also called LC-07 / HC-09) VH: QVQLVQSGAEVKKPGASVKVSCKASGYIFRSYWIHWIRQPPGKGLEWIGRIYPGTGNTYYNRKFKGRVTISADKSISTAYLQWSSLKASDTAMYYCARSYDSSVAYWGQGTLVTVSS VL: AIQLTQSPSSLSASVGDRVTITCSASSSVSYMHWYLQKPGQSPQLLIYKTSKLLSGVPSRFSGSGSGTDFTFTISSLEAEDAATYYCQQWSSNPYITFGQGTKVEIKR"
  value-kind: "koff"
  experimental-result: 0.00118
- binder: "CPS-14 (antibody, V domains shown, Mutant of humanized hum10, whole antibody expressed in CHO cells; also called LC-04 / HC-31) VH: QVQLVQSGAEVKKPGASVKVSCKASGYIFTSYWIHWIRQPPGKGLEWIGRIYPGTGRTYYNRKFKGRVTISADKSISTAYLQWSSLKASDTAMYYCARSYDYSVAYWGQGTLVTVSS VL: AIQLTQSPSSLSASVGDRVTITCSASSSVSYMHWYLQKPGQSPQLLIYETRKLASGVPSRFSGSGSGTDFTFTISSLEAEDAATYYCQQWSSNPYITFGQGTKVEIKR"
  value-kind: "koff"
  experimental-result: 0.00123
- binder: "CPS-17 (antibody, V domains shown, Mutant of humanized hum10, whole antibody expressed in CHO cells; also called LC-04 / HC-49) VH: QVQLVQSGAEVKKPGASVKVSCKASGYIFRSYWIHWIRQPPGKGLEWIGRIYPGTGNTYYNRKFKGRVTISADKSISTAYLQWSSLKASDTAMYYCARSYMYSVAYWGQGTLVTVSS VL: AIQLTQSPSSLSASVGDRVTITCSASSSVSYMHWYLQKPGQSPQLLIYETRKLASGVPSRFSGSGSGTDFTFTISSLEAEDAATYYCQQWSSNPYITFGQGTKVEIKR"
  value-kind: "koff"
  experimental-result: 0.00158
